Recorded values, source PubChem BioAssay (NCI).

In this section, each of the molecules is paired with its reported growth.
system: SF-539 CNS; experiment: NCI-60 one-dose screen, 48 h (100 = growth as untreated, 0 = no growth, -100 = all killed); conditions: 10 µM unless noted
This is part of a sample that, as a whole, favours compounds with a hit. Of some 83,000 tested, about 20% had one in any assay.
Your answer should be a plain number; it is taken to be in %.

Some entries whose results are on file:
COc1cc(/C=C2\CCCC3=C2N=C2SC(C)=NN2C3c2cc(OC)c(OC)c(OC)c2)cc(OC)c1OC (stereo not given)    -21.6
ClC1=C(Cl)C(Cl)=C(Cl)C1=Cc1ccc(Cl)cc1Cl    -30
O=S(=O)(O)CCl    101
Cc1oc2ncnc(Nc3ccccc3)c2c1C(=O)NCCO    88.6
CC1CCc2c(sc(NC(=O)CSc3nnc4ccccn34)c2C(N)=O)C1 (stereo not given)    137

Reported growth ( "CC(C)(C)c1cc(-c2nc3ccc(N4CCN(CCO)CC4)cc3[nH]2)cc(C(C)(C)C)c1O" ) = 55.3

Please fill in: growth reported for "COc1ccc(/C=C2\Oc3cc(OCCN4CCCC4)ccc3C2=O)c(OC)c1" = 87.4

Looking up Cc1ccc(C2=NN(c3ccc(S(=O)(=O)NC(=O)NCc4ccccc4)cc3)C(c3ccc(N(C)C)cc3)C2)c(C)c1 (stereo not given) , I found its growth recorded as 37.6

The recorded growth for entry "O=C(CCCn1c2c(sc3ccccc32)c(=O)n2nnc(-c3ccccc3)c12)NCCc1cnc[nH]1" equals -97.3

Reported growth ( "O=c1oc2cc(OS(=O)(=O)c3ccccc3)c(Cl)cc2c2c1CCCCCC2" ) = 78.4
